Taken from patent US8871753B2.

# ASSAYED_TARGET: Recombinant Human Anaplastic Lymphoma Kinase (Homo sapiens, UniProt Q9UM73)
# Construct: purchased Invitrogen, Carlsbad, Calif
# Sequence (Q9UM73 19-1620): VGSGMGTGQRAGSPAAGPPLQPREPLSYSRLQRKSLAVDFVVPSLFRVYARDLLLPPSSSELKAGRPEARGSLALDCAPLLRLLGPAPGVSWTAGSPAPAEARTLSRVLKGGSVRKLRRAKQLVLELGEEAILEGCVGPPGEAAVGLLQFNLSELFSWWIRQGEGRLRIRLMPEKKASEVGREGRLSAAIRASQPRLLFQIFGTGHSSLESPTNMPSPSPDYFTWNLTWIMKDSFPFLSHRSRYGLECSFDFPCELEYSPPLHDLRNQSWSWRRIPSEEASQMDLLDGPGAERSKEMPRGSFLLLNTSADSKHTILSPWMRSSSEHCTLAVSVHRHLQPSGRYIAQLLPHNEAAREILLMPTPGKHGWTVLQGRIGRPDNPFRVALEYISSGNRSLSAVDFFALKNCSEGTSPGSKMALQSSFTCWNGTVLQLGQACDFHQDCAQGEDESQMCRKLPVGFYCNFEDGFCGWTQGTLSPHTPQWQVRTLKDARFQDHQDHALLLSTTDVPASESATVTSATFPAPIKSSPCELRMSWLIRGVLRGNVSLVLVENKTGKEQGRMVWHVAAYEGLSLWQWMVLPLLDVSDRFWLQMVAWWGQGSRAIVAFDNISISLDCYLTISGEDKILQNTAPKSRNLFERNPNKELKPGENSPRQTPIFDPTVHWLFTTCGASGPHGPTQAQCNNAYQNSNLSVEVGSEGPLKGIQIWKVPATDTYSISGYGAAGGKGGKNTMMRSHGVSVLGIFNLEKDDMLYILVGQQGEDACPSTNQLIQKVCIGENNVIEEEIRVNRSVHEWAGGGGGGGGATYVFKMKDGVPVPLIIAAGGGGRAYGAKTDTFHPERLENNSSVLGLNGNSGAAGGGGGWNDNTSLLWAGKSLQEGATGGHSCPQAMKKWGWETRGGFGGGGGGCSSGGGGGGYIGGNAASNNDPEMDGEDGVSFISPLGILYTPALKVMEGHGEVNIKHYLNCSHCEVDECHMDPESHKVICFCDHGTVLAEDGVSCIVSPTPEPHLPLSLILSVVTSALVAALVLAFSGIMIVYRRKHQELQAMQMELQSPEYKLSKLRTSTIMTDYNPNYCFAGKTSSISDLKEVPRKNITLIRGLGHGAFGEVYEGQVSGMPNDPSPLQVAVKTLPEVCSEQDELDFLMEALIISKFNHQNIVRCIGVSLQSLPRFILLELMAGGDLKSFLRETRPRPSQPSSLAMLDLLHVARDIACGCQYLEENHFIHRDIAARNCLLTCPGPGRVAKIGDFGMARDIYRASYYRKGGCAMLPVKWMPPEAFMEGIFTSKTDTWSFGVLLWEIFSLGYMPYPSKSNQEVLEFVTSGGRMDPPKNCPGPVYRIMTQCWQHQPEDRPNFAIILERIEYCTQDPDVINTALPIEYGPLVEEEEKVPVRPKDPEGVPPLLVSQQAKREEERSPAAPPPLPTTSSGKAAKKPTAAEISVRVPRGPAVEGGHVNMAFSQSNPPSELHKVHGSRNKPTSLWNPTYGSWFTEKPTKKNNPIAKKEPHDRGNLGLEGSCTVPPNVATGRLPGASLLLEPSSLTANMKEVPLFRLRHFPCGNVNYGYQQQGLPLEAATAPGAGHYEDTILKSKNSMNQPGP
# EXPERIMENT_NOTES: ALK HTRF kinase assay
# Assay type: biochemical
# SETUP_CONDITIONS: compound at 500 nM or 1 mM; 90 μM ATP
QUANTITY: ALK % of inhibition at a concentration of 500 nM or 1 mM (%)
One number for each entry, in %.

For each of the items listed, what is its ALK % of inhibition at a concentration of 500 nM or 1 mM?
1. O=C(Nc1ccc2cc1CCc1cccc(c1)Nc1ncc(Cl)c(n1)N2)[C@@H]1CCCN1 [Example A110, bis(trifluoroacetate)]
2. O=C(CC1CCN(S(=O)(=O)c2ccccc2C(F)(F)F)CC1)Nc1ccc2cc1CCc1cncc(c1)Nc1ncc(Cl)c(n1)N2 [Example A224, bis(trifluoroacetate)]
3. O=C(CC1CCN(C(=O)c2nc[nH]n2)CC1)Nc1ccc2cc1CCc1cncc(c1)Nc1ncc(Cl)c(n1)N2 [Example A136, bis(trifluoroacetate)]
4. O=C(CC1CCN(S(=O)(=O)c2cccnc2)CC1)Nc1ccc2cc1CCc1cncc(c1)Nc1ncc(Cl)c(n1)N2 [Example A202, tris(trifluoroacetate)]

OUTPUT:
45
30
38
42

Hi team, please reply with ALK % of inhibition at a concentration of 500 nM or 1 mM for each item in this list.
1. O=C(CC1CCN(C(=O)c2nccs2)CC1)Nc1ccc2cc1CCc1cncc(c1)Nc1ncc(Cl)c(n1)N2 [Example A133, bis(trifluoroacetate)]
2. O=C(CC1CCN(c2nncs2)CC1)Nc1ccc2cc1CCc1cncc(c1)Nc1ncc(Cl)c(n1)N2 [Example A174, tris(trifluoroacetate)]

OUTPUT:
1: 32; 2: 33

---

Would you mind telling me the reported IC50 of each entry?
# ASSAYED_TARGET: human JAK1 (a.a. 837-1142) (Homo sapiens, UniProt P23458)
# Construct: human JAK1 (a.a. 837-1142); His tag (N); made in house; host or cells: insect cells (baculovirus)
# Sequence (P23458 849-1154): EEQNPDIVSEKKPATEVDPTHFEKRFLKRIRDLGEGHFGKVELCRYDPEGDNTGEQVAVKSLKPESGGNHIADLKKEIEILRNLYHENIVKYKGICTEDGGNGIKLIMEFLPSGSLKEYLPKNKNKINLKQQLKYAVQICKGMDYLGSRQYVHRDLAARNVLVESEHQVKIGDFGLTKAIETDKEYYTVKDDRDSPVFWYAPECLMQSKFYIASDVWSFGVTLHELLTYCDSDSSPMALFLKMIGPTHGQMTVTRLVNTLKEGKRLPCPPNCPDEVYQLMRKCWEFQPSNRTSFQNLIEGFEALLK
# EXPERIMENT_NOTES: In vitro JAK kinase assay (HTRF, phosphorylation of a biotinylated peptide), JAK1
# Type: biochemical
# SETUP_CONDITIONS: Table D1; read-out: JAK1 IC50
Structures can show the parent of a compound that is named as a salt.
Numbers only, in nM.

Some compounds with recorded IC50:
>>> reported("O=C(Cn1c(=O)oc2c3cc(cc21)Nc1nc(ncc1Cl)Nc1cccc(c1)CC3)N1CCN(c2ccccc2)CC1 [Example D188, bis(trifluoroacetate)]")
32
>>> reported("CS(=O)(=O)N1CC(CC(=O)Nc2ccc3cc2CCc2cncc(c2)Nc2ncc(Cl)c(n2)N3)C1 [Example D146, bis(trifluoroacetate)]")
24
>>> reported("O=C(C[C@@H]1CCN(C(=O)Nc2ccccc2)C1)Nc1ccc2cc1CCc1cncc(c1)Nc1ncc(Cl)c(n1)N2 [Example D113, bis(trifluoroacetate)]")
11
>>> reported("Cn1cncc1C(=O)N1CC[C@H](CC(=O)Nc2ccc3cc2CCc2cncc(c2)Nc2ncc(Cl)c(n2)N3)C1 [Example D111, tris(trifluoroacetate)]")
61
>>> reported("O=C(CC1CN(c2nc3ccccc3s2)C1)Nc1ccc2cc1CCc1cncc(c1)Nc1ncc(Cl)c(n1)N2 [Example D138, tris(trifluoroacetate)]")
12

State recorded IC50 for all listed compounds.
1. O=C(CC1CN(c2nc3cccnc3o2)C1)Nc1ccc2cc1CCc1cncc(c1)Nc1ncc(Cl)c(n1)N2 [Example D141, tris(trifluoroacetate)]
2. Clc1cnc2nc1Nc1cccc(c1)CSc1cccc(c1)N2 [Example D2, trifluoroacetate]
3. C[N+]1(C)CCN(c2ccc3cc2CCc2cccc(c2)Nc2ncc(Cl)c(n2)N3)CC1
4. O=C(Nc1cc2cc(c1)OCCSc1cccc(c1)Nc1nc(ncc1Cl)N2)c1ccccc1 [Example D57, trifluoroacetate]
5. Cc1oncc1C(=O)N1CC[C@@H](CC(=O)Nc2ccc3cc2CCc2cncc(c2)Nc2ncc(Cl)c(n2)N3)C1 [Example D123, bis(trifluoroacetate)]
6. Cc1cc(C(=O)N2CCN(C(=O)COc3ccc4cc3CCc3cncc(c3)Nc3ncc(Cl)c(n3)N4)CC2)n[nH]1 [Example D266, tris(trifluoroacetate)]
7. O=C(COc1ccc2cc1CCc1cncc(c1)Nc1ncc(Cl)c(n1)N2)N1CCN(c2cccc(Cl)n2)CC1 [Example D240, tris(trifluoroacetate)]

OUTPUT:
9
19
295
11
50
31
255

INPUT: Item under review: CS(=O)(=O)c1ccc(-c2cc3cc(c2)Nc2ncc(Cl)c(n2)Nc2cccc(c2)OCC3)cc1 [Example D29, trifluoroacetate] . Reported IC50?
OUTPUT: 2
